System: HOP-62 NSCLC
Assay: NCI-60 one-dose screen, 48 h (100 = growth as untreated, 0 = no growth, -100 = all killed)
Conditions: 10 µM unless noted
The panel holds about 83,000 compounds, 20% with a hit somewhere; the sample as a whole holds those more often.
Catalogue of growth readings, one per entry.

>  <Compound>
COc1cc(-c2nn(-c3ccc(NC(=O)c4ccc(Cl)c(Cl)c4)cc3)cc2-c2ccncc2)ccc1Cl

>  <Study Target>
HOP-62 NSCLC

>  <growth (%)>
52.7

$$$$
>  <Compound>
CCOC(=O)CNS(=O)(=O)CC(=O)c1ccccc1

>  <Study Target>
HOP-62 NSCLC

>  <growth (%)>
83.8

$$$$
>  <Compound>
CC1CCCCC[N+]12CCCC2 (stereo unspecified)

>  <Study Target>
HOP-62 NSCLC

>  <growth (%)>
103

$$$$
>  <Compound>
O=C(c1ccccc1)c1ccccc1-c1ccccc1

>  <Study Target>
HOP-62 NSCLC

>  <growth (%)>
32.5

$$$$
>  <Compound>
O=P(OCCCl)(OCCCl)C(O)c1ccccc1Cl (stereo unspecified)

>  <Study Target>
HOP-62 NSCLC

>  <growth (%)>
96.2

$$$$
>  <Compound>
Nc1ccc(N=Nc2ccccc2)c2cc(S(=O)(=O)O)ccc12

>  <Study Target>
HOP-62 NSCLC

>  <growth (%)>
92.4

$$$$
>  <Compound>
N/C(=N\O)c1ccncc1

>  <Study Target>
HOP-62 NSCLC

>  <growth (%)>
93.6

$$$$
>  <Compound>
COc1cc([C@@H]2c3cc4c(cc3[C@H](O)[C@H]3COC[C@@H]23)OCO4)cc(OC)c1OC

>  <Study Target>
HOP-62 NSCLC

>  <growth (%)>
65.4

$$$$
>  <Compound>
O=C(CN1CCN(c2cccc(Cl)c2)CC1)N1CCN(c2nnc(-c3ccc(Cl)cc3)c(-c3ccc(Cl)cc3)n2)CC1

>  <Study Target>
HOP-62 NSCLC

>  <growth (%)>
116

$$$$
>  <Compound>
O=C(Nc1ccc(-n2cc(-c3ccncc3)c(-c3ccc(Cl)c(O)c3)n2)cc1)Nc1cc(C(F)(F)F)cc(C(F)(F)F)c1

>  <Study Target>
HOP-62 NSCLC

>  <growth (%)>
14

$$$$
>  <Compound>
O=c1[nH]c2cc(O)ccc2n2cc3c(F)cccc3c12

>  <Study Target>
HOP-62 NSCLC

>  <growth (%)>
21.1

$$$$

====

Test system: UACC-257 melanoma
Assay: NCI-60 one-dose screen, 48 h (100 = growth as untreated, 0 = no growth, -100 = all killed)
Conditions: 10 µM unless noted
The panel holds about 83,000 compounds, 20% with a hit somewhere; the sample as a whole holds those more often.
Lab note - cut at 90% for growth: 1 (yes) if strictly below, 0 (no) if not.

>  <Compound>
COc1ccc2cn3c4ccc(O)cc4[nH]c(=O)c3c2c1

>  <Class Assignment>
1 (yes)

$$$$
>  <Compound>
C=CCNCCC#N

>  <Class Assignment>
0 (no)

$$$$
>  <Compound>
CCCCCCCCCCC1OC(C)CC(C)O1 (stereo not drawn)

>  <Class Assignment>
0 (no)

$$$$
>  <Compound>
COc1ccc(-c2nc(SCC(C)C)nc(Nc3ccc([N+](=O)[O-])cc3)c2C#N)cc1

>  <Class Assignment>
1 (yes)

$$$$
>  <Compound>
O=P(OCCCl)(OCCCl)C(O)c1ccccc1Cl (stereo not drawn)

>  <Class Assignment>
0 (no)

$$$$
>  <Compound>
COC(=O)c1ccc2[nH]c(O)c(C(=Nc3ccc(N(C)C(=O)CN4CCN(C)CC4)cc3)c3ccc(CCO)cc3)c2c1

>  <Class Assignment>
1 (yes)

$$$$
>  <Compound>
CCOC1=C(Cl)C(=O)C(OCC)=C(Cl)C1=O

>  <Class Assignment>
0 (no)

$$$$
>  <Compound>
CCN(CC)CCCC(C)Nc1c(C)cnc2cc(Cl)c(C)cc12 (stereo not drawn)

>  <Class Assignment>
0 (no)

$$$$
>  <Compound>
C/C=C/C/C=C/[C@H](C)C[C@H](O)[C@@H]1C[C@@H]2O[C@H]2/C=C/[C@@H]2OC(C)(C)O[C@H]2/C=C/C[C@H](C)CC(=O)O1

>  <Class Assignment>
1 (yes)

$$$$
>  <Compound>
CCCC(=O)NNc1[nH]c(-c2cc(OC)c(OC)c(OC)c2)cc1C(=O)OCC

>  <Class Assignment>
0 (no)

$$$$
>  <Compound>
NC(N)=Nc1ccc(/C=C2\C=Cc3ccccc32)cc1

>  <Class Assignment>
1 (yes)

$$$$
>  <Compound>
N=c1c2c(=O)n3c(nc2nc2sc4ccc(Cl)cc4n12)-c1ccccc1Sc1ccccc1-3

>  <Class Assignment>
1 (yes)

$$$$
>  <Compound>
COc1cc(NC(=O)CSc2nc3ccc(Cl)cc3c(=O)n2-c2ccc(F)cc2)cc(OC)c1OC

>  <Class Assignment>
0 (no)

$$$$
>  <Compound>
Cc1nn(-c2ccccc2)c(N)c1N=C1NC(=O)/C(=C/c2ccc(Cl)cc2)S1

>  <Class Assignment>
0 (no)

$$$$
>  <Compound>
CC1C(=O)CCCC1=O

>  <Class Assignment>
0 (no)

$$$$
>  <Compound>
O=C1C(Br)=CC2C1C1C3CCC3C2(Br)C12OCCO2 (stereo not drawn)

>  <Class Assignment>
1 (yes)

$$$$
>  <Compound>
CCCCCCCCCCCCOC(=O)/C=C\C(=O)NC(N)=O

>  <Class Assignment>
1 (yes)

$$$$

====

Test system: T-47D breast
Experiment: NCI-60 one-dose screen, 48 h
Conditions: 10 µM unless noted
About 83,000 compounds went through this panel and 20% of them were active in at least one assay; those are over-represented in the sample as a whole. The source made the active and inactive calls. How the source made its calls: active means growth percent below 10; inactive means the rest.
Possible outcomes: active, inactive

>  <Molecule>
COc1cc(-c2nn(-c3ccc(NC(=O)Nc4cc(C(F)(F)F)cc(C(F)(F)F)c4)cc3)cc2-c2ccncc2)ccc1Cl

>  <Study Target>
T-47D breast

>  <Class Assignment>
active

$$$$
>  <Molecule>
Cn1c2c(cc(S(=O)(=O)c3ccccc3)c1=O)CCc1c-2cnn1-c1ccc(Cl)cc1

>  <Study Target>
T-47D breast

>  <Class Assignment>
active

$$$$
>  <Molecule>
COc1ccc2oc(=O)cc(CN3C(=O)S/C(=C\c4ccc(Cl)cc4)C3=O)c2c1

>  <Study Target>
T-47D breast

>  <Class Assignment>
inactive

$$$$
>  <Molecule>
O=c1c2c(c3ccccc3n1-c1ccccc1)NC(=S)NC2c1ccccc1 (stereo not given)

>  <Study Target>
T-47D breast

>  <Class Assignment>
inactive

$$$$
>  <Molecule>
CCOC(=O)C1CCCN1C(=O)C1(NC(C)=O)CCCC1 (stereo not given)

>  <Study Target>
T-47D breast

>  <Class Assignment>
inactive

$$$$
>  <Molecule>
CC(O)c1cc[cH-]c1.[Fe+2].c1cc[cH-]c1 (stereo not given)

>  <Study Target>
T-47D breast

>  <Class Assignment>
inactive

$$$$
>  <Molecule>
NCCCOc1cc2ccccc2cc1C(=O)Nc1ccc(Cl)cc1OC(=O)c1cc2ccccc2cc1OCCCN

>  <Study Target>
T-47D breast

>  <Class Assignment>
active

$$$$
>  <Molecule>
COc1ccc(OC)c(Cn2cc3c(c2-c2ccccc2)CCc2cnoc2-3)c1

>  <Study Target>
T-47D breast

>  <Class Assignment>
inactive

$$$$
>  <Molecule>
COC(=O)[C@@H]1[C@H](O)[C@H](C)[C@H](O)[C@H](C)/C=C\C=C(C)C(=O)Nc2c(C)c(OC(C)=O)c3c(c2O)C(=O)C(C)=C2OCOC(=C23)C(C)=C[C@@](C)(O)[C@H](O)[C@@H](C)[C@H]1OC(C)=O

>  <Study Target>
T-47D breast

>  <Class Assignment>
inactive

$$$$
>  <Molecule>
Nc1nc(-c2cccc(Br)c2)cc(-c2cc3ccccc3oc2=O)n1

>  <Study Target>
T-47D breast

>  <Class Assignment>
inactive

$$$$
>  <Molecule>
Oc1ccccc1/C=N/N=C/c1c(O)ccc2ccccc12

>  <Study Target>
T-47D breast

>  <Class Assignment>
inactive

$$$$
>  <Molecule>
COc1nc(OC)nc(-c2cc(C(=O)c3ccc(Br)cc3)n3cc(C)cc(C)c23)n1

>  <Study Target>
T-47D breast

>  <Class Assignment>
inactive

$$$$
>  <Molecule>
N#CCc1ncc(-c2ccc(C(F)(F)F)cc2)c(NC2CCCCCC2)n1

>  <Study Target>
T-47D breast

>  <Class Assignment>
inactive

$$$$
>  <Molecule>
CCC1(CC)C(OC)NC(Br)=C(C#N)C1(C#N)C(N)=O (stereo not given)

>  <Study Target>
T-47D breast

>  <Class Assignment>
inactive

$$$$
>  <Molecule>
CCNc1nnc(COc2ccc(CNC(=O)CCCC/C=C/C(C)C)cc2OC)o1

>  <Study Target>
T-47D breast

>  <Class Assignment>
inactive

$$$$
>  <Molecule>
COCC(=O)NNc1[nH]c(-c2ccc(OC)cc2)cc1C#N

>  <Study Target>
T-47D breast

>  <Class Assignment>
inactive

$$$$
>  <Molecule>
O=C1OC(c2ccc(-c3ccccc3)cc2)=C/C1=C/c1c2ccccc2cc2ccccc12

>  <Study Target>
T-47D breast

>  <Class Assignment>
inactive

$$$$
>  <Molecule>
O=C(Nc1ccc(Cl)c(Cl)c1)O/N=C\c1c(Cl)ccc([N+](=O)[O-])c1Cl

>  <Study Target>
T-47D breast

>  <Class Assignment>
active

$$$$
>  <Molecule>
O=C1c2cc([N+](=O)[O-])ccc2-c2cc(Cl)c(NC(=O)C(F)(F)F)cc21

>  <Study Target>
T-47D breast

>  <Class Assignment>
inactive

$$$$
>  <Molecule>
COc1cc(OC)c2c(=O)cc(-c3ccccc3)oc2c1

>  <Study Target>
T-47D breast

>  <Class Assignment>
inactive

$$$$
>  <Molecule>
CCCCCCCCCCCC(=O)OC(C)C(=O)Nc1ccccc1 (stereo not given)

>  <Study Target>
T-47D breast

>  <Class Assignment>
inactive

$$$$
>  <Molecule>
COc1ccc(-c2nc(SCC(C)C)nc(Nc3ccc(C)cc3)c2C#N)cc1

>  <Study Target>
T-47D breast

>  <Class Assignment>
inactive

$$$$
>  <Molecule>
CC(CCN1CCN(CCC(C)CC(C)(C)C)C1CC(C)CC(C)(C)C)CC(C)(C)C (stereo not given)

>  <Study Target>
T-47D breast

>  <Class Assignment>
inactive

$$$$
>  <Molecule>
C=CCNCCC#N

>  <Study Target>
T-47D breast

>  <Class Assignment>
inactive

$$$$
>  <Molecule>
COc1cc(NC(C)CCCN)c2nccc(C)c2c1OC (stereo not given)

>  <Study Target>
T-47D breast

>  <Class Assignment>
inactive

$$$$
>  <Molecule>
O=C(Nc1ccc(-n2cc(-c3ccncc3)c(-c3ccc(Cl)c(O)c3)n2)cc1)c1cc(C(F)(F)F)cc(C(F)(F)F)c1

>  <Study Target>
T-47D breast

>  <Class Assignment>
inactive

$$$$
>  <Molecule>
COC(=O)CC(=O)C(=O)OC

>  <Study Target>
T-47D breast

>  <Class Assignment>
inactive

$$$$
>  <Molecule>
CC(C)CSc1nc(-c2ccc(F)cc2)c(C#N)c(N2CCCCC2)n1

>  <Study Target>
T-47D breast

>  <Class Assignment>
inactive

$$$$
>  <Molecule>
COc1ccc(/C=C2\SC(=O)N(Cc3cc(=O)oc4ccc(OC)cc34)C2=O)cc1

>  <Study Target>
T-47D breast

>  <Class Assignment>
inactive

$$$$
>  <Molecule>
CCOP1(=O)CC(C)=C(Cl)C(P(=O)(O)O)C1 (stereo not given)

>  <Study Target>
T-47D breast

>  <Class Assignment>
inactive

$$$$
>  <Molecule>
CC1(C)N=C(N)N=C(N)N1c1cccc(CCCCOc2ccccc2)c1

>  <Study Target>
T-47D breast

>  <Class Assignment>
inactive

$$$$
>  <Molecule>
COc1cccc(NC(=O)NCCNc2nccc(-c3c(-c4ccc(F)cc4)nc4sccn34)n2)c1

>  <Study Target>
T-47D breast

>  <Class Assignment>
inactive

$$$$
>  <Molecule>
CCCCCCCCCCCCCCCCCCOP(=O)(O)O

>  <Study Target>
T-47D breast

>  <Class Assignment>
inactive

$$$$
>  <Molecule>
CC1Cc2cc(F)ccc2-n2cccc21 (stereo not given)

>  <Study Target>
T-47D breast

>  <Class Assignment>
inactive

$$$$
>  <Molecule>
CC(C)(C)c1cc(C[P+](c2ccc(Cl)cc2)(c2ccc(Cl)cc2)c2ccc(Cl)cc2)cc(C(C)(C)C)c1O

>  <Study Target>
T-47D breast

>  <Class Assignment>
inactive

$$$$
